Target: hAChE (human erythrocyte membranes as a AChE source) (Homo sapiens, UniProt P22303)
Construct: human erythrocyte membranes as a AChE source; from tissue; host or cells: human erythrocyte membranes
Sequence (P22303 32-617 isoform P22303-2 limits assumed): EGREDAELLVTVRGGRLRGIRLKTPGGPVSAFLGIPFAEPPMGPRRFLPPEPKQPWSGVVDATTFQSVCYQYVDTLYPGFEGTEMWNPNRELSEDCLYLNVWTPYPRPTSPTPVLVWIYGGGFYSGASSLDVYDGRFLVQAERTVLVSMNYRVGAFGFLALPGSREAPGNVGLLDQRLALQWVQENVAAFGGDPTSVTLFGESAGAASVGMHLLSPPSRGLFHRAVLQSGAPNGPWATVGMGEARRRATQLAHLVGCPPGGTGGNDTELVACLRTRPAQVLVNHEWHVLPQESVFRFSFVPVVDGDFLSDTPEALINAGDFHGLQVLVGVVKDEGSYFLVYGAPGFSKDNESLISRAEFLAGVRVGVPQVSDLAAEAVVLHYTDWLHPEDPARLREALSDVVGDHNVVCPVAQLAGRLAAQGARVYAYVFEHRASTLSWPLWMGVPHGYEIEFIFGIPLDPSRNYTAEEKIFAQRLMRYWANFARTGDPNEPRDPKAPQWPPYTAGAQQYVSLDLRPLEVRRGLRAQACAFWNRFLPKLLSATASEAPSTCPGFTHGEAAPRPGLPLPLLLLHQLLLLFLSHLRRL
Assay: acetylcholinesterase (AChE) activity, modified Ellman method
Format: biochemical
Conditions: hAChE IC50, modified Ellman method, acetylthiocholine iodide substrate, pH=7.4
Hi there, I'd appreciate the recorded IC50 for every entry that follows.
One number for each entry, in nM.

Some compounds with known IC50 results, for comparison:
Returns the measured IC50 for the input compound. Input: COc1cc2c(cc1OC)C(=O)/C(=C/c1cc[n+](Cc3ccccc3)cc1C(C)=O)C2 20.1

Repeat for the following compound: COc1ccc2c(c1)CCC(Cc1cc[n+](Cc3ccccc3F)cc1C(C)=O)C2=O (stereo not shown) 43

Same for COc1ccc2c(c1)CCC(Cc1cc[n+](Cc3ccccc3)cc1C(C)=O)C2=O (stereo not shown) [Compound 119] 71

Note: attention shifts to another entry.
Entry COc1ccc2c(c1)CCC(Cc1cc[n+](Cc3cccc(F)c3)cc1C(C)=O)C2=O (stereo not shown) has what IC50? 55
